biological target: Ubiquitin carboxyl-terminal hydrolase 28 (Homo sapiens) (UniProt Q96RU2); assay: Concentration-response biochemical assay confirming initial hits as inhibitors of ubiquitin-specific protease 28 (AID 1645866); conditions: purified USP28, ubiquitin-rhodamine fluorescence, 30 min
Sequence (Q96RU2 whole entry, looked up): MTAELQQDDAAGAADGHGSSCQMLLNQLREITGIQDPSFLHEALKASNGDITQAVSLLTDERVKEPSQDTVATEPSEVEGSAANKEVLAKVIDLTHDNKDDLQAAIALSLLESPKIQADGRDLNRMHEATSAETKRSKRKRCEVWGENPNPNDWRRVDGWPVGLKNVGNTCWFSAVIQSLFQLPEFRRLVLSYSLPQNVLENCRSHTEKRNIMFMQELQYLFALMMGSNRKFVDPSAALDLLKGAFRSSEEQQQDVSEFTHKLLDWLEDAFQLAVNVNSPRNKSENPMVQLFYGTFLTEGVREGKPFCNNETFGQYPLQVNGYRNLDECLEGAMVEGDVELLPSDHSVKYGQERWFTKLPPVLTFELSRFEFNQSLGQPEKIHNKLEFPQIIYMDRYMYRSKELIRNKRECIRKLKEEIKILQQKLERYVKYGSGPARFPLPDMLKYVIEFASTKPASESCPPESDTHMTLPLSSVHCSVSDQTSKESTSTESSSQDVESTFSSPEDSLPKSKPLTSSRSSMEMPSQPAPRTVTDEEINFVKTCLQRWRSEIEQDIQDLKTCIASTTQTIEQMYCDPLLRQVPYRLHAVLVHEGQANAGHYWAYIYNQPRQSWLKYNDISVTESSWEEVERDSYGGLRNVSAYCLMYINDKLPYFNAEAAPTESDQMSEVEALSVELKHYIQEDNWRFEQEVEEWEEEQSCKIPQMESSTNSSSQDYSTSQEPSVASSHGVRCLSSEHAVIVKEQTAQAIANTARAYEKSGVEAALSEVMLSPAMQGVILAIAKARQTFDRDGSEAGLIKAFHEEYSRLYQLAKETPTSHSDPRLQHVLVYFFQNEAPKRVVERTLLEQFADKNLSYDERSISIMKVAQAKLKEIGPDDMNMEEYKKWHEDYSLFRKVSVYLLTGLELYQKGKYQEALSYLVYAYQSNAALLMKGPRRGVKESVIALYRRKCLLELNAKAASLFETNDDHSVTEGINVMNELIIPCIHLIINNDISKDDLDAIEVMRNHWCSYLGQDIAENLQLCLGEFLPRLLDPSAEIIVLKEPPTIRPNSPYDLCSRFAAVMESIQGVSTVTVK
Active and inactive are the calls of the source.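 How the source made its calls: active means in confirmatory dose-response testing, peak deubiquitinase inhibition of 30% or more; inactive means the rest.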
Tick one outcome: active, inactive

Outcome? CCCc1c(C(=O)O)c(O[C@H]2O[C@H](C)[C@@H](OC)[C@H](OC)[C@@H]2OC)cc2cc3c(c(O)c12)C(=O)c1c(O)cc(O[C@@H]2O[C@@H](C)[C@H](O[C@H]4O[C@H](C)[C@@H](OC)[C@H](OC)[C@@H]4O)[C@@H](OC)[C@H]2O)cc1C3=O inactive

Outcome? CCC(=O)Nc1nc2cc(NC(=O)Nc3cc(C)cc(C)c3)ccc2s1 active

Outcome? Cc1ccc(OCC(=O)Nc2cccc(-c3nc4ncccc4o3)c2)c(C)c1 active

Outcome? Cc1cccc(C(=O)Nc2ccccc2Sc2nc3c(c(=O)n(C)c(=O)n3C)n2C)c1 active

Outcome? COc1ccc(-c2ocnc2C(=O)NCc2ccc(F)cc2)cc1 active

Outcome? CN1c2ccccc2CN(CC(N)=O)CC1Cc1ccccc1 (centres undefined) inactive

Outcome? O=C(NCc1cccnc1)c1cnn2c(C(F)(F)F)cc(-c3ccc(F)cc3)nc12 active

Outcome? O=C(Nc1ccc2c(c1)OCCO2)c1cc(CN2CCOCC2)on1 active

Outcome? Cc1c(CC(=O)Nc2nn[nH]n2)c(=O)oc2cc3c(cc12)CCC1(CCCCC1)O3 inactive

Outcome? Cc1sc2ncn3c(=O)n(CC(=O)Nc4ccc(F)c(Cl)c4)nc3c2c1C active

Outcome? Cc1nn(-c2ccc([N+](=O)[O-])cc2)c(C)c1-c1nc2ccccc2[nH]1 active

Outcome? COc1cc2c(cc1NC(=O)c1ccc(-n3cnnn3)cc1)oc1ccccc12 active

Outcome? O=C(COC(=O)C1CCCN1C(=O)C12CC3CC(CC(C3)C1)C2)c1ccc(Cl)cc1 (centres undefined) inactive

Outcome? COC(=O)c1cc2c(ccn2C)n1CC(=O)NC1CCCC1 inactive

====

target: Ubiquitin carboxyl-terminal hydrolase 28 (Homo sapiens); assay: Concentration-response biochemical assay confirming initial hits as inhibitors of ubiquitin-specific protease 28 (AID 1645866); details: purified USP28, ubiquitin-rhodamine fluorescence, 30 min
Active and inactive are the calls of the source.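 Rule for the calls: active = in confirmatory dose-response testing, peak deubiquitinase inhibition of 30% or more; inactive = the rest.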
Result type: IC50

Returns the measured IC50 for the input compound. Input: Cc1cc(C)c2nc3c(cc2c1)CN(Cc1ccco1)C(=O)O3 > 50 µM (inactive)

Returns the measured IC50 for the input compound. Input: O=C(NC1CCN(Cc2ccccc2)CC1)c1[nH]nc2c1CCc1ccccc1-2 6.27 µM

Returns the measured IC50 for the input compound. Input: CCc1nc(-c2cc(C(=O)N3CCOCC3)c3ccccn23)cs1 > 50 µM (inactive)

Returns the measured IC50 for the input compound. Input: COc1cccc2cc(C(=O)Nc3nc(-c4ccncc4)cs3)oc12 0.647 µM

Returns the measured IC50 for the input compound. Input: Cc1cccc(NC(=O)Cn2c(=O)n(Cc3ccc(F)cc3)c(=O)c3sccc32)c1 7 µM

Returns the measured IC50 for the input compound. Input: COc1ccc(C(=O)Nc2ccccc2C(=O)NCc2ccccc2)cc1 37.6 µM

Returns the measured IC50 for the input compound. Input: CCOC(=O)c1cnc(C(F)(F)F)nc1Sc1n[nH]c(-c2cccs2)n1 > 50 µM (inactive)

Returns the measured IC50 for the input compound. Input: CCn1c(=N)n(CCOc2ccc(F)cc2)c2ccccc21 0.588 µM

Returns the measured IC50 for the input compound. Input: CCC[C@H]1O[C@@H]2CC(=O)O[C@@H]2C2=C1C(=O)c1c(O)cccc1C2=O 14.3 µM

Returns the measured IC50 for the input compound. Input: O=C(Nc1cc(F)c2nc(N3CCCC3)ccc2c1)c1ccco1 > 50 µM (inactive)

Returns the measured IC50 for the input compound. Input: COc1cccc(C(=O)NCC(=O)Nc2nc3ccccc3[nH]2)c1 43.8 µM

Returns the measured IC50 for the input compound. Input: COc1ccc(NC(=O)c2nc3n(n2)-c2ccccc2S(=O)(=O)N3)cn1 > 50 µM (inactive)

Returns the measured IC50 for the input compound. Input: Cc1cc(C(=O)CSc2nc3ccccc3[nH]2)c(C)n1Cc1ccco1 36.2 µM

Returns the measured IC50 for the input compound. Input: COc1cccc(CNC(=O)c2ccc3c(c2)NC(=O)C2CCCN32)c1OC (stereo not given) > 50 µM (inactive)

Returns the measured IC50 for the input compound. Input: O=C(Cn1cncc(-c2nc(-c3ccccc3)cs2)c1=O)NC1CCCC1 36.5 µM

====

target: Ubiquitin carboxyl-terminal hydrolase 28 (Homo sapiens) (UniProt Q96RU2); experiment: Concentration-response biochemical assay confirming initial hits as inhibitors of ubiquitin-specific protease 28 (AID 1645866); conditions: purified USP28, ubiquitin-rhodamine fluorescence, 30 min
The source made the active and inactive calls.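 Rule for the calls: active = in confirmatory dose-response testing, peak deubiquitinase inhibition of 30% or more; inactive = the rest.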
Tick one outcome: active, inactive

Outcome? COc1cccc(NC(=O)CSc2nnc(-c3cc4cccc(OC)c4o3)n2C)c1 active

Outcome? CC(CCc1ccccc1)NC(=O)C(=O)c1cn(CC(=O)N2CCOCC2)c2ccccc12 (stereo unspecified) inactive

Outcome? COc1ccccc1-c1nc2c3c(C)c(C)n(-c4ccc(Br)cn4)c3ncn2n1 active

Outcome? Cc1cnc2nc3c(cc2c1)CN(CCc1ccc(Cl)cc1)CC3 inactive

Outcome? COc1ccc(Cl)cc1-n1nnc(C(=O)N2CCc3ccccc3C2)c1C inactive

Outcome? Cc1nc2ccc(NC(=O)COc3ccccc3[N+](=O)[O-])cc2s1 active

Outcome? Cn1c(C(=O)NCc2ccccn2)cc2c(=O)[nH]c3ccccc3c21 inactive

Outcome? O=C(Nc1ccc(NS(=O)(=O)c2ccc3c4c(cccc24)CC3)cc1)c1ccccc1 active

Outcome? COc1ccc(CNc2nn3c(-c4cncc(OC)c4)cnc3s2)cc1 active

Outcome? COc1cccc(NC(=O)c2ccc(F)cc2Cl)c1 active

Outcome? COCCn1c(=O)[nH]c2cc(C(=O)NCCNc3ccc([N+](=O)[O-])cc3C#N)ccc2c1=O active

Outcome? COc1cccc(NC(=O)C2Cn3ccnc3C3(CCN(C(C)=O)CC3)O2)c1 (stereo unspecified) inactive

Outcome? O=C(NCc1ccccc1)c1ccc(-c2ccc(N3CCCC3)nn2)cc1 inactive

Outcome? Cc1cc(NC(=O)COc2ccc3oc4ccccc4c3c2)no1 active

Outcome? O=C(Nc1ccc2c(c1)OCCO2)Nc1ccc2nc3n(c(=O)c2c1)CCCC3 active

Outcome? O=C(CSc1ccc2nnc(-c3ccccc3)n2n1)N1CCCc2ccccc21 active

Outcome? Cc1nc(SCC#N)c2oc3ccccc3c2n1 active

Outcome? O=C(O)CCCCCN1C(=O)CC(c2ccc(Cl)cc2)CC1=O active

Outcome? c1coc(CNc2nc3ccccc3n3nnnc23)c1 inactive

Outcome? Cc1cccc(COc2ccc(C3SCC(=O)Nc4n[nH]c(C)c43)cc2)c1 (stereo unspecified) active

Outcome? CSc1ncccc1C(=O)NC1(O)C(=O)c2ccccc2C1=O active

Outcome? O=C(NCc1cccnc1)c1cnn2c(C(F)(F)F)cc(-c3ccccc3)nc12 inactive

Outcome? O=C(Cn1ccc2ccc(N3CCOCC3)nc21)NCc1ccccc1F inactive

Outcome? COc1cccc(C(=O)Nc2ccc(-n3cnnn3)cc2)c1 active

Outcome? Cc1ccc(O)c(-c2cc(C(=O)Nc3ccccc3Cl)[nH]n2)c1 active

Outcome? C[C@@H]1OC2=C(C(=O)c3cccc(O)c3C2=O)[C@H](O)[C@@H]1O active

Outcome? Cc1cc(O)c(=O)cc2c1C[C@H]1CC(C)(C)/C=C/C[C@@]3(C)Oc4cc(=O)c(O)cc(C)c4C[C@@H]3C[C@H](O)[C@]1(C)O2 inactive

Outcome? COc1ccc(CC(=O)NCc2ccc3[nH]c(C)cc3c2)cc1 inactive

Outcome? CCOC(=O)c1ccc(NC(=O)Cn2c(=O)n(CC(=O)NCCc3ccc(OC)c(OC)c3)c(=O)c3sccc32)cc1 active

Outcome? CC(OC(=O)c1cn(-c2ccccc2)nc1-c1cccnc1)C(=O)Nc1cccc(S(=O)(=O)N(C)C)c1 (stereo unspecified) active

Outcome? O=C(COc1nc2ccccc2nc1N1CCOCC1)NC(c1ccccc1)c1ccccc1 inactive

====

Provide the recorded IC50 for the entries that follow.
target: Ubiquitin carboxyl-terminal hydrolase 28 (Homo sapiens) (UniProt Q96RU2); test: Concentration-response biochemical assay confirming initial hits as inhibitors of ubiquitin-specific protease 28 (AID 1645866); details: purified USP28, ubiquitin-rhodamine fluorescence, 30 min
Calls of active or inactive are those of the source.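 How the source made its calls: active means in confirmatory dose-response testing, peak deubiquitinase inhibition of 30% or more; inactive means the rest.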

Returns the measured IC50 for the input compound. Input: CCC(C(=O)NCc1ccncc1)N(c1cccc(Cl)c1)S(C)(=O)=O (stereo not drawn) > 50 µM (inactive)

Returns the measured IC50 for the input compound. Input: CCOc1ccc2[nH]c(=O)c(CN(C(=O)c3cccs3)C3CCCC3)cc2c1 14.1 µM

Returns the measured IC50 for the input compound. Input: Cc1ccccc1C(=O)c1ccc(C(=O)NC2CCCCCC2)[nH]1 7.45 µM
